Examples of compounds with documented IC50 follow.
target: hNaV1.7 (Homo sapiens); construct: expressed in transfected cells; host or cells: HEK293; assay: QPatch NaV1.7 assay (whole-cell patch clamp, QPatch16x); format: cell-based; settings: holding voltage V1/2 SSI (half of channels inactivated), HEK293-hNaV1.7 cells, read-out: QP Nav1.7 SSI vhalf pIC50 (converted)
Sequence (Q15858 whole entry): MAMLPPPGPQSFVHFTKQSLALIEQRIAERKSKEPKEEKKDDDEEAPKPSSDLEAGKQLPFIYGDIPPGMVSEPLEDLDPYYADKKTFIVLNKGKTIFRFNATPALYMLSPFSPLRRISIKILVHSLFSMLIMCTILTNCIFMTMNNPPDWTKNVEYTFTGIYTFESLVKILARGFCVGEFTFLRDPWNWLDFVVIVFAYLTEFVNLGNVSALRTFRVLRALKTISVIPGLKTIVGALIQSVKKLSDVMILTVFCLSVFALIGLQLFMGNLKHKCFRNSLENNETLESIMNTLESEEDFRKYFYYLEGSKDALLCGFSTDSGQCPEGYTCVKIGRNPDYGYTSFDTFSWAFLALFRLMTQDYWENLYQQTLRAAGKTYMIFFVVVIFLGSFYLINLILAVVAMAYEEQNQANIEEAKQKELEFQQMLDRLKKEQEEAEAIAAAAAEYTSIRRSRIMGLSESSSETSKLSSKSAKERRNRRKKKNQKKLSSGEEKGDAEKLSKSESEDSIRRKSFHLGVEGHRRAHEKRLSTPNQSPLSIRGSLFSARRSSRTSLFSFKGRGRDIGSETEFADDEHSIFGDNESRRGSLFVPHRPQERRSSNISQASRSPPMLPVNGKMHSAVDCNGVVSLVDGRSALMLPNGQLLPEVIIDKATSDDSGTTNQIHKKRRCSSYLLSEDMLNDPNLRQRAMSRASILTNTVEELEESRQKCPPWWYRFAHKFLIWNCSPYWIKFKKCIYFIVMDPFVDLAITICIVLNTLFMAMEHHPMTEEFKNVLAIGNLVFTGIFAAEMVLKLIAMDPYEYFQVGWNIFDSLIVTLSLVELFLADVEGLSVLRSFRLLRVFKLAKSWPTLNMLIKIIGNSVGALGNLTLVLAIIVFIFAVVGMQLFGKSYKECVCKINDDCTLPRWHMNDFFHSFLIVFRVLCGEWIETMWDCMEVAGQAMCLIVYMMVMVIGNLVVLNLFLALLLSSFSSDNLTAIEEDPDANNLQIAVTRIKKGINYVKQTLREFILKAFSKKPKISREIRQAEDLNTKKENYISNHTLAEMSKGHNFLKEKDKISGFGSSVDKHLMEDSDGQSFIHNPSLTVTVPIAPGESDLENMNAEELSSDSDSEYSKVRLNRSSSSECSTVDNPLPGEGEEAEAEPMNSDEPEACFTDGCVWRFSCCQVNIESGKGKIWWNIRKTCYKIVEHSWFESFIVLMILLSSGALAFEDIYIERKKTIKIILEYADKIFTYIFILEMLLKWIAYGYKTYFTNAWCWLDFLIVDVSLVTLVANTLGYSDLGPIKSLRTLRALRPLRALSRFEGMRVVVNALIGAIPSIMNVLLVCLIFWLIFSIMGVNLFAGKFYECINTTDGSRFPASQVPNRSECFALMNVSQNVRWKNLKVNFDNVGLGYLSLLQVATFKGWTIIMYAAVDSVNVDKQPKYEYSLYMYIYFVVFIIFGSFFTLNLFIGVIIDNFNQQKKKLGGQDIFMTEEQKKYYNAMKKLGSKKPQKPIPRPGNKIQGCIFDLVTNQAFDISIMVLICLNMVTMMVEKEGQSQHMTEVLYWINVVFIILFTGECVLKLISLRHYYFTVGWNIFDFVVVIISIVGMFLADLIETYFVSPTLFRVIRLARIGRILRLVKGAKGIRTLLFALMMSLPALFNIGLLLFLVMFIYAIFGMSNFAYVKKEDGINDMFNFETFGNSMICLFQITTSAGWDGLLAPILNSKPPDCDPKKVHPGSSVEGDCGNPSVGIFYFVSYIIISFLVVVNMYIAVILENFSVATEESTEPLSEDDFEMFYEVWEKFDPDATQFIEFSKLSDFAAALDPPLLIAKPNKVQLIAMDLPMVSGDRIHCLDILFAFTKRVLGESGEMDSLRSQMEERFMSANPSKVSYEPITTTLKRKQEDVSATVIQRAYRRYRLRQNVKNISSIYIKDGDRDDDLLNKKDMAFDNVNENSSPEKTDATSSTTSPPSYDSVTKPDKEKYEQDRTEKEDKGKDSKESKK
Counter-ions that a name gives are not always drawn.

COMPOUND	TEST_SYSTEM	UNIT_STRING	IC50
CCOc1ccc(F)c(-c2cc([C@@H]3CC[C@]4(CCN(C)C4=O)N3)ncc2CC)c1 [Example 242, hydrochloride]	hNaV1.7 (Homo sapiens)	µM	20
Cc1c(-c2ccc(C(F)(F)F)cc2)ccnc1[C@@H]1CC[C@@]2(CCN(C)C2=O)N1 [Example 16, hydrochloride]	hNaV1.7 (Homo sapiens)	µM	12.6
CN1CC[C@]2(CC[C@@H](c3cc(-c4ccccc4F)ccn3)N2)C1=O [Example 34, hydrochloride]	hNaV1.7 (Homo sapiens)	µM	158
CCOc1ccc(F)c(-c2ccnc([C@@H]3CC[C@]4(CC[C@H](C)NC4=O)N3)c2)c1 [Example 244, hydrochloride]	hNaV1.7 (Homo sapiens)	µM	3.16
Cc1ccc(-c2cc(C)nc([C@H]3CC[C@@]4(CCN(C)C4=O)N3)c2)cc1 [Example 87, hydrochloride]	hNaV1.7 (Homo sapiens)	µM	6.31
CN1CC[C@@]2(CC[C@H](c3cc(-c4cc(F)cc(F)c4)ccn3)N2)C1=O [Example 77, hydrochloride]	hNaV1.7 (Homo sapiens)	µM	31.6
CCOc1cccc(-c2ccnc([C@H]3CC[C@@]4(CCN(C)C4=O)N3)c2)c1 [Example 82, hydrochloride]	hNaV1.7 (Homo sapiens)	µM	7.94
O=C1NCC[C@@]12CC[C@H](c1cc(-c3ccc(C(F)(F)F)cc3)ccn1)N2 [Example 37, hydrochloride]	hNaV1.7 (Homo sapiens)	µM	0.794
Cc1cc(-c2cc(C(F)(F)F)ccc2C(N)=O)cc([C@@H]2CC[C@@]3(CCN(C)C3=O)N2)n1 [Example 25, hydrochloride]	hNaV1.7 (Homo sapiens)	µM	1580
CN1CC[C@]2(CC[C@H](c3cc(-c4ccccc4F)ccn3)N2)C1=O [Example 35, hydrochloride]	hNaV1.7 (Homo sapiens)	µM	100
CN1CC[C@@]2(CC[C@H](c3cc(-c4ccc(OC(F)(F)F)cc4)ccn3)N2)C1=O [Example 5, hydrochloride]	hNaV1.7 (Homo sapiens)	µM	3.98
COCc1cccc(-c2ccnc([C@H]3CC[C@@]4(CCN(C)C4=O)N3)c2)c1 [Example 168, hydrochloride]	hNaV1.7 (Homo sapiens)	µM	158
CCOc1ccc(F)c(-c2ccnc([C@@H]3CC[C@]4(CCN(C)C4=O)N3)c2)c1 [Example 145, hydrochloride]	hNaV1.7 (Homo sapiens)	µM	6.31
CCOc1ccc(F)c(-c2cc([C@@H]3CC[C@]4(CCN(C)C4=O)N3)ncc2F)c1 [Example 221, hydrochloride]	hNaV1.7 (Homo sapiens)	µM	31.6

###

target: hNaV1.7 (Homo sapiens); construct: expressed in transfected cells; host or cells: HEK293; assay: QPatch NaV1.7 assay (whole-cell patch clamp, QPatch16x); format: cell-based; conditions: holding voltage −90 mV (most channels closed), HEK293-hNaV1.7 cells, read-out: QP Nav1.7 −90 mV pIC50 (converted)
Counter-ions that a name gives are not always drawn.
MEASURE_NAME: IC50 (µM)

COMPOUND	UNIT_STRING	NUMERIC_VALUE
CC(C)c1ccc(F)c(-c2ccnc([C@H]3CC[C@@]4(CCN(C)C4=O)N3)c2)c1 [Example 159, hydrochloride]	µM	31.6
Cc1c(-c2ccc(F)cc2)ccnc1[C@@H]1CC[C@@]2(CCN(C)C2=O)N1 [Example 20, hydrochloride]	µM	316
CCOc1ccc(F)c(-c2cc([C@H]3CC[C@]4(CCN(C)C4=O)N3)ncc2C)c1 [Example 140, hydrochloride]	µM	100
CCOc1ccc(F)c(-c2cc(C)nc([C@H]3CC[C@]4(CCNC4=O)N3)c2)c1 [Example 103, hydrochloride]	µM	2.51
CN1CC[C@@]2(CC[C@H](c3cc(-c4ccc(C(F)(F)F)cc4F)ccn3)N2)C1=O [Example 12, hydrochloride]	µM	50.1
CCOc1ccc(F)c(-c2cc(C)nc([C@H]3CC[C@@]4(CCN(C)C4=O)N3)c2)c1 [Example 93, hydrochloride]	µM	39.8
CCOc1cc(F)c(F)c(-c2ccnc([C@H]3CC[C@@]4(CCN(C)C4=O)N3)c2)c1 [Example 175, hydrochloride]	µM	200
